Assignment: determine reported koff for the given binders.
- assayedTarget: T1, human ERBB3 His tagged, monomeric (human, UniProt P21860 20-643, biotinylated in the Alphascreen assays (sites not given))
- T1 construct: Used unbiotinylated as Biacore analyte and biotinylated in Alphascreen; treated as one molecule; also called human ERBB3-His (Acrobiosystems); biotinylated monomeric human ERBB3
- experimentDescription: SPR (Biacore), captured IgG, monomeric ERBB3-His analyte
# unit: s⁻¹ | format: bare number

Req: Any idea what its koff is? The binder is 16B09 IgG1null (antibody, V domains shown, Human IgG1null (L234A, L235A, G237A) and human Ckappa) VH: QVQLVESGGGLVKPGGSLRLSCAASGFTFSDYSMSWIRQAPGKGLEWVSTISDSGTYTYYPDSVKGRFTISRDNAKNSLYLQMNSLRAEDTAVYYCAREWGDYDGFDFWGQGTLVTVSS VL: DIQMTQSPSSLSASVGDRVTITCRASQEISSYLSWYQQKPGKAPKLLIYAASTLQSGVPSRFSGSGSGTDFTLTISSLQPEDFATYYCLQYDSTPLTFGGGTKVEIK
Resp: 0.0014

Req: Could you do the same for MH4 IgG1null (antibody, V domains shown, Designer (Maximally Humanized) clone; Human IgG1null and human Ckappa) VH: QVQLVESGGGLVKPGGSLRLSCAASGFTFSDYGMSWIRQAPGKGLEWVSTISDSGSYIYYADSVKGRFTISRDNAKNSLYLQMNSLRAEDTAVYYCAREWGDYDGFDEWGQGTLVTVSS VL: DIQMTQSPSSLSASVGDRVTITCRASQSISSYLSWYQQKPGKAPKLLIYAASSLQSGVPSRFSGSGSGTDFTLTISSLQPEDFATYYCLQYDSTPLTFGGGTKVEIK , please?
Resp: 0.0029

Req: And 15G11 IgG1null (antibody, V domains shown, Human IgG1null (L234A, L235A, G237A) and human Ckappa) VH: QVQLVESGGGLVKPGGSLRLSCAASGFTFSDYGMSWIRQAPGKGLEWVSTISDSGSYTYYPDSVKGRFTISRDNAKNSLYLQMNSLRAEDTAVYYCARELGDYDGFDYWGQGTLVTVSS VL: DIQMTQSPSSLSASVGDRVTITCRASQEISSYLSWYQQKPGKAPKLLIYAASSLDSGVPSRFSGSGSGTDFTLTISSLQPEDFATYYCLQYDSTPYTFGGGTKVEIK ?
Resp: 0.0012
